- protocol.notes: STM_H9_CystineISnorm_perc: Stemina devTOX quickPredict H9 human embryonic stem cell (hESC)-based Assay for Cystine (CYSS) Metabolite Biomarker, Normalized (AID 2283713)
The source made the active and inactive calls. How the source made its calls: active means hit-call score of the fitted dose curve at least 0.9, where 1 is the maximum; inactive means score below 0.9.
Bench note: report the call from yes (1) (active), no (0) (inactive)

compound | label.class
Clc1ccc(C(c2ccc(Cl)cc2)C(Cl)Cl)cc1 | no (0)
Cn1cc(-c2ccccc2)c(=O)c(-c2cccc(C(F)(F)F)c2)c1 | no (0)
CC(C)(C)C(O)(CCc1ccc(Cl)cc1)Cn1cncn1 (centres undefined) | yes (1)
Nc1ccc(Oc2ccc(N)cc2)cc1 | no (0)
CCC[CH2][Sn]([Cl])([CH2]CCC)[CH2]CCC | yes (1)

-- ask Identify the outcome logged in this assay for the compound shown: ClC1=C(Cl)[C@]2(Cl)[C@H]3[C@H]([C@@H]4C=C[C@H]3C4)[C@@]1(Cl)C2(Cl)Cl
-- reply no (0)

-- ask And CCN(CC)N=O ?
-- reply no (0)

-- ask And COC(=O)Nc1nc2ccccc2[nH]1 ?
-- reply yes (1)

-- ask And Oc1ccc2ccc3cccc4ccc1c2c34 ?
-- reply no (0)

-- ask And CNC(=O)Oc1cccc2c1OC(C)(C)C2 ?
-- reply no (0)

-- ask And OCCCBr ?
-- reply no (0)

====

- Read-out: Transforming Growth Factor (TGFA), TGFA (gene 7039)
- protocol.notes: LTEA_HepaRG_TGFA: Life Technologies and Expression Analysis (LTEA) Assay for Transforming Growth Factor (TGFA) using HepaRG (AID 2283532)
- run.conditions: mRNA level, 48 h; actives raise or lower the signal
The source made the active and inactive calls. Rule for the calls: active = hit-call score of the fitted dose curve at least 0.9, where 1 is the maximum; inactive = score below 0.9.
Bench note: report the call from active, inactive

molecule | label.class
COc1cc(C=O)cc2c1[C@H](COC(N)=O)[C@]1(OC(C)=O)ON2C[C@H]2[C@@H]1N2C(C)=O | active
C[C@]12C=CC3=C4CCC(=O)C=C4CC[C@H]3[C@@H]1CC[C@@H]2O | inactive
CC(C)N(Cc1ccccc1)C(=O)C(C)(C)C | inactive

-- ask Identify the outcome logged in this assay for the molecule shown: CCOc1cccc(C2(N3CCN(c4ccccc4)CC3)CCC(C)CC2)c1 (configuration not stated)
-- reply inactive

-- ask And CC(C)COC(=O)c1ccccc1C(=O)OCC(C)C ?
-- reply inactive

-- ask And CN(C)c1ccccc1 ?
-- reply inactive

-- ask And Nc1ccc([N+](=O)[O-])cc1 ?
-- reply inactive

====

- assay.system: X-box-binding protein 1 (Homo sapiens)
- protocol.notes: ATG_Xbp1_CIS: Attagene CIS-FACTORIAL HepG2 Assay for human X-box Binding Protein 1 (XBP1) (AID 2282972)
- run.conditions: HepG2 XBP1 cis-element reporter, Attagene multiplex; actives raise or lower the signal
The source made the active and inactive calls. How the source made its calls: active means hit-call score of the fitted dose curve at least 0.9, where 1 is the maximum; inactive means score below 0.9.
Bench note: report the call from class 1 = active, class 0 = inactive

Record excerpt, results attached:
compound | label.class
CCOc1cccc(C2(N3CCN(c4ccccc4)CC3)CCC(C)CC2)c1 (configuration not stated) | class 0
Cc1ccc(N)cc1 | class 0
CC(C)COC(=O)c1ccccc1C(=O)OCC(C)C | class 1
Cc1ccc(N=C=O)cc1N=C=O | class 0
CCCCCCCCOC(=O)c1ccc(C(=O)OCCCCCCCC)c(C(=O)OCCCCCCCC)c1 | class 0

-- ask Identify the outcome logged in this assay for the compound shown: O=[N+]([O-])c1ccc(Oc2ccc(Cl)cc2Cl)cc1
-- reply class 0

-- ask And c1ccc2c(c1)-c1cccc3cccc-2c13 ?
-- reply class 0

====

- assay.system: human Matrix Metalloproteinase-9 (MMP9), MMP9 (gene 4318)
- protocol.notes: NVS_ENZ_hMMP9: NovaScreen (NVS) Enzymatic Assay for human Matrix Metalloproteinase-9 (MMP9) (AID 2283190);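 further: cell-free recombinant MMP9 protease activity read by fluorescent substrate signal; active means inhibition seen as loss of fluorescence signal versus DMSO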
Results filed as inconclusive are left out. Activity calls are given as the source filed them. The calls were made as follows: active = hit-call score of the fitted dose curve at least 0.9, where 1 is the maximum; inconclusive = response in the unintended direction; inactive = score below 0.9.
Bench note: report the call from t for active, f for inactive

Record excerpt, results attached:
molecule | label.class
Cc1ccc(N=C=O)cc1N=C=O | f
Clc1ccc(C(c2ccc(Cl)cc2)C(Cl)(Cl)Cl)cc1 | f
CCCCCOC(=O)c1ccccc1C(=O)OCCCCC | t

-- ask Identify the outcome logged in this assay for the compound shown: O=Cc1ccco1
-- reply f

====

- Read-out: Human Leukocyte Antigen - DR isotype (HLADR), HLA-DRA (gene 3122)
- protocol.notes: BSK_CASM3C_HLADR: BioMAP Diversity Plus: CASM3C Assay for Human Leukocyte Antigen - DR isotype (HLADR) Biomarker Activity (AID 2283043);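 further: cell-surface HLA-DR protein level quantified by ELISA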
- run.conditions: primary human coronary artery smooth muscle cells; actives raise or lower the signal
The source made the active and inactive calls. Rule for the calls: active = hit-call score of the fitted dose curve at least 0.9, where 1 is the maximum; inactive = score below 0.9.
Bench note: report the call from 1 (active), -1 (inactive)

Record excerpt, results attached:
compound | label.class
CN(C)c1ccccc1 | -1
O=C(Nc1ccccc1)c1ccccc1I | -1
O=C(O)C1C2CCC(O2)C1C(=O)O (centres undefined) | 1
COc1cc(C=O)cc2c1[C@H](COC(N)=O)[C@]1(OC(C)=O)ON2C[C@H]2[C@@H]1N2C(C)=O | 1

-- ask Identify the outcome logged in this assay for the compound shown: CCN(CC)CCO
-- reply -1

-- ask And Cc1ccc(N)cc1 ?
-- reply -1

-- ask And CCCCCCCCCCCCCN1CC(C)OC(C)C1 (centres undefined) ?
-- reply -1

-- ask And OCCOCCO ?
-- reply -1

====

- assay.system: Adra2b (gene 24174) (UniProt P19328)
- Sequence (P19328 whole entry, looked up): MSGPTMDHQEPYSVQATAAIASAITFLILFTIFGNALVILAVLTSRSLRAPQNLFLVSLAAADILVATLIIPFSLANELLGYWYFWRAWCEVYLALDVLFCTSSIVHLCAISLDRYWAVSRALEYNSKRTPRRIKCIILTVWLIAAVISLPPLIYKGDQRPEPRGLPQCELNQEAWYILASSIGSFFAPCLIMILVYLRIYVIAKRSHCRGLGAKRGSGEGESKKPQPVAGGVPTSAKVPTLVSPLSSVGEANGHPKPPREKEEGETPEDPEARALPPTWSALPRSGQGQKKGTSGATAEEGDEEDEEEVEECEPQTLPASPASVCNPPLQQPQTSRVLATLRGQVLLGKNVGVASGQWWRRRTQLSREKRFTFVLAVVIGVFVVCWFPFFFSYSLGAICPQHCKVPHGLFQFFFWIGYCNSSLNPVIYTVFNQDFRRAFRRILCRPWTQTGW
- protocol.notes: NVS_GPCR_rmAdra2B: NovaScreen (NVS) G Protein-Coupled Receptor Assay for hybird cells Adrenergic, Alpha 2B Receptor (Adra2B) (AID 2283306)
Records with an inconclusive call do not appear. Calls of active or inactive are those of the source. The calls were made as follows: active = hit-call score of the fitted dose curve at least 0.9, where 1 is the maximum; inconclusive = response in the unintended direction; inactive = score below 0.9.
Bench note: report the call from active, inactive

Record excerpt, results attached:
molecule | assay.system | label.class
CCCCCCCCn1sccc1=O | Adra2b (gene 24174) (UniProt P19328) | active
CC(C)(C)C(O)(CCc1ccc(Cl)cc1)Cn1cncn1 (centres undefined) | Adra2b (gene 24174) (UniProt P19328) | inactive

-- ask Identify the outcome logged in this assay for the molecule shown: CCC[CH2][Sn]([Cl])([CH2]CCC)[CH2]CCC
-- reply inactive

-- ask And CCOC(=O)[C@]1(c2ccccc2)Oc2ccccc2[C@@H]1N ?
-- reply active

====

- protocol.notes: BSK_SAg_SRB: Viability Assessment in the BioMAP Diversity Plus: SAg Assay (AID 2283096);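 further: cells read one day after compound addition; hits may be either gain or loss of signal compared with DMSO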
- run.conditions: primary human HUVEC with PBMC
- Procedure: BSK_SAg is a cell-based, multiplexed-readout assay that uses umbilical vein endothelium and peripheral blood mononuclear cells, a human vascular primary cell co-culture, with measurements taken at 24 hours after chemical dosing in a 96-well plate.BSK_SAg_SRB is an assay component measured in the BSK_SAg assay. […] This assay endpoint, BSK_SAg_SRB, was analyzed with bidirectional fitting relative to DMSO as the negative control and baseline of activity. […]
Calls of active or inactive are those of the source. Rule for the calls: active = hit-call score of the fitted dose curve at least 0.9, where 1 is the maximum; inactive = score below 0.9.
Bench note: report the call from active, inactive

molecule | label.class
C[C@]12C=CC3=C4CCC(=O)C=C4CC[C@H]3[C@@H]1CC[C@@H]2O | active
OCCOCCO | inactive
Cc1cc(N=Nc2ccccc2C)ccc1N | active
ClC1=C(Cl)C2(Cl)C3C(Cl)C=CC3C1(Cl)C2(Cl)Cl (centres undefined) | active
Nc1cc(Cl)cc(C(=O)O)c1Cl | inactive
O=C(N[C@H](c1ccccc1)[C@@H]1CN2CCC1CC2)c1c(Cl)ccc(C(F)(F)F)c1Cl | inactive

-- ask Identify the outcome logged in this assay for the molecule shown: C[N+](C)(C)CC1CO1 (centres undefined)
-- reply inactive

-- ask And Nc1ccc([N+](=O)[O-])cc1 ?
-- reply inactive

-- ask And c1ccc(N=Nc2ccccc2)cc1 ?
-- reply inactive

-- ask And CCCCCCCCn1sccc1=O ?
-- reply active

-- ask And c1ccc(C2CO2)cc1 (centres undefined) ?
-- reply inactive

-- ask And CC(C)N(Cc1ccccc1)C(=O)C(C)(C)C ?
-- reply inactive

-- ask And ClCCOCCCl ?
-- reply inactive

-- ask And CN(C)c1ccccc1 ?
-- reply inactive

====

- protocol.notes: APR_HepG2_MitoticArrest_72hr: Apredica 72-hour HepG2 Assay for Mitotic Arrest (AID 2282918)
- run.conditions: high-content imaging, actives raise or lower the signal
Calls of active or inactive are those of the source. The calls were made as follows: active = hit-call score of the fitted dose curve at least 0.9, where 1 is the maximum; inactive = score below 0.9.
Bench note: report the call from t (active), f (inactive)

Record excerpt, results attached:
compound | label.class
CN(C)c1ccccc1 | f
CCC[CH2][Sn]([Cl])([CH2]CCC)[CH2]CCC | t
CC(C)(C)OOC(C)(C)CCC(C)(C)OOC(C)(C)C | t

-- ask Identify the outcome logged in this assay for the compound shown: CC(C)(OOC(C)(C)c1ccccc1)c1ccccc1
-- reply t

-- ask And CCOC(=O)[C@]1(c2ccccc2)Oc2ccccc2[C@@H]1N ?
-- reply t

-- ask And CCCCOC(=O)c1ccccc1C(=O)OCc1ccccc1 ?
-- reply f

-- ask And O=[N+]([O-])C(Br)(CO)CO ?
-- reply f

-- ask And Clc1ccc(Cl)c(Cl)c1 ?
-- reply f
